B1: DnaJ homolog subfamily C member 2, residues 451 to 503; numbered along this chain, Q99543 (parent)
chain: SKNWSEDDLQLLIKAVNLFPAGTNSRWEVIANYMNIHSSSGVKRTAKDVIGKA

- Variants of: B1
- PROTOCOL NOTES: abundance fitness (aPCA) (normalised: wild type 0, dead -1); higher = more abundant; growth selection in yeast, the domain comes from the species named
- RUN CONDITIONS: Homo sapiens
abundance fitness reference

The examples below pair each entry with its known result.
| VARIANT IDENTIFIER | abundance fitness |
| --- | --- |
| D7F | -0.308 |
| A53T | -0.254 |
| K14R | -0.088 |
| V49E | -0.897 |
| V29D | 0.16 |
| V29N | -0.166 |
| W27P | -0.247 |
| S1A | -0.372 |
| P20E | -0.358 |
| A53Y | -0.629 |

Req: Need abundance fitness of Y33A , thanks.
Resp: -0.752

Req: Can you handle S25F next?
Resp: -0.272

Req: Can you handle D48S next?
Resp: -0.212

Req: Can you handle G41L next?
Resp: -0.186

Req: Can you handle Q10S next?
Resp: -0.163
